conditionDescription: in n-butyl acetate, 308.2 K

>  <testSmiles>
CC1(C)O[C@H]2CC(=O)OC[C@]23[C@H]2CC[C@@]4(C)[C@H](c5ccoc5)OC(=O)[C@H]5O[C@]54[C@]2(C)C(=O)C[C@@H]13

>  <solubility (mole fraction)>
0.00053

$$$$

* * *

conditionDescription: in chloroform, 318.2 K

>  <testSmiles>
CC1(C)O[C@H]2CC(=O)OC[C@]23[C@H]2CC[C@@]4(C)[C@H](c5ccoc5)OC(=O)[C@H]5O[C@]54[C@]2(C)C(=O)C[C@@H]13

>  <solubility (mole fraction)>
0.0057

$$$$

* * *

conditionDescription: in acetonitrile, 323.2 K

>  <testSmiles>
CC1(C)O[C@H]2CC(=O)OC[C@]23[C@H]2CC[C@@]4(C)[C@H](c5ccoc5)OC(=O)[C@H]5O[C@]54[C@]2(C)C(=O)C[C@@H]13

>  <solubility (mole fraction)>
0.00857

$$$$

* * *

conditionDescription: in ethyl acetate, 288.2 K
reportedEndpoint: solubility (mole fraction)

>  <testSmiles>
CC1(C)O[C@H]2CC(=O)OC[C@]23[C@H]2CC[C@@]4(C)[C@H](c5ccoc5)OC(=O)[C@H]5O[C@]54[C@]2(C)C(=O)C[C@@H]13

>  <resultValue>
0.000761

$$$$

* * *

conditionDescription: in chloroform, 323.2 K

>  <testSmiles>
CC1(C)O[C@H]2CC(=O)OC[C@]23[C@H]2CC[C@@]4(C)[C@H](c5ccoc5)OC(=O)[C@H]5O[C@]54[C@]2(C)C(=O)C[C@@H]13

>  <solubility (mole fraction)>
0.00599

$$$$

* * *

conditionDescription: in THF, 283.2 K
reportedEndpoint: solubility (mole fraction)

>  <testSmiles>
CC1(C)O[C@H]2CC(=O)OC[C@]23[C@H]2CC[C@@]4(C)[C@H](c5ccoc5)OC(=O)[C@H]5O[C@]54[C@]2(C)C(=O)C[C@@H]13

>  <resultValue>
0.00242

$$$$

* * *

conditionDescription: in THF, 288.2 K

>  <testSmiles>
CC1(C)O[C@H]2CC(=O)OC[C@]23[C@H]2CC[C@@]4(C)[C@H](c5ccoc5)OC(=O)[C@H]5O[C@]54[C@]2(C)C(=O)C[C@@H]13

>  <solubility (mole fraction)>
0.00257

$$$$

* * *

conditionDescription: in chloroform, 288.2 K
reportedEndpoint: solubility (mole fraction)

>  <testSmiles>
CC1(C)O[C@H]2CC(=O)OC[C@]23[C@H]2CC[C@@]4(C)[C@H](c5ccoc5)OC(=O)[C@H]5O[C@]54[C@]2(C)C(=O)C[C@@H]13

>  <resultValue>
0.00433

$$$$

* * *

conditionDescription: in n-butyl acetate, 283.2 K
reportedEndpoint: solubility (mole fraction)

>  <testSmiles>
CC1(C)O[C@H]2CC(=O)OC[C@]23[C@H]2CC[C@@]4(C)[C@H](c5ccoc5)OC(=O)[C@H]5O[C@]54[C@]2(C)C(=O)C[C@@H]13

>  <resultValue>
0.000323

$$$$

* * *

conditionDescription: in THF, 308.2 K

>  <testSmiles>
CC1(C)O[C@H]2CC(=O)OC[C@]23[C@H]2CC[C@@]4(C)[C@H](c5ccoc5)OC(=O)[C@H]5O[C@]54[C@]2(C)C(=O)C[C@@H]13

>  <solubility (mole fraction)>
0.0035

$$$$
